Activity reference
Tested on: Raji
experimental_protocol: Inhibition of 12-O-tetradecanoylphorbol-13-acetate-induced EBV-early antigen activation in human Raji cells assessed as early antigen induction at 500 molar ratio after 48 hrs by conventional indirect immunofluorescence technique relative to TPA
Type: cell-based
Design: scale not given: the % may be the effect or the level left
settings: human gammaherpesvirus 4
Supply the numeric figure in %, leaving out any unit text.

In the examples that follow, each entry is paired with its recorded Activity.
compound=C[C@@H](CC[C@@H](O)C(C)(C)O)[C@@H]1CC[C@]2(C)[C@H]3CC[C@@]4(C(C)(C)O)OCCC[C@H]4[C@]3(C)CC[C@@]12C result_number=24.4
compound=CC(C)=CCC[C@H](C)[C@@H]1CC[C@]2(C)[C@H]3CC[C@@]4(C(C)(C)O)OCCC[C@H]4[C@]3(C)CC[C@@]12C result_number=30.5
compound="C[C@@H](CC[C@H](O)C(C)(C)O)[C@@H]1CC[C@]2(C)[C@H]3CC[C@@]4(C(C)(C)O)OCCC[C@H]4[C@]3(C)CC[C@@]12C [(24S)-24,25-DIHYDROXYSUNPOLLENOL]" result_number=25.3
compound="C[C@@H](C/C=C/C(C)(C)O)[C@@H]1CC[C@]2(C)[C@H]3CC[C@@]4(C(C)(C)O)OCCC[C@H]4[C@]3(C)CC[C@@]12C [(23E)-23-DEHYDRO-25-HYDROXYSUNPOLLENOL]" result_number=22

QUERY: Please report the measured Activity for C[C@@H](CC[C@@H]1OC1(C)C)[C@@H]1CC[C@]2(C)[C@H]3CC[C@@]4(C(C)(C)O)OCCC[C@H]4[C@]3(C)CC[C@@]12C
RESULT: 27.3

QUERY: Please report the measured Activity for C[C@@H](CC[C@H]1OC1(C)C)[C@@H]1CC[C@]2(C)[C@H]3CC[C@@]4(C(C)(C)O)OCCC[C@H]4[C@]3(C)CC[C@@]12C [(24R)-24,25-EPOXYSUNPOLLENOL]
RESULT: 26.3
